Overview of recorded GI50 for various compounds
System: HT-29
Assay: NCI tumour cell line growth inhibition, 48 h
The source made the active and inactive calls. No stated cut-off is given here; in the data, active = GI50 up to about 1.1 µM and inactive = higher.

Known GI50 results, listed for orientation:
# compound, value observed
rows = [
    ("O=C(O)CCC1(Br)CCCCC(Br)C1=O (stereo not given)", "> 100 µM (inactive)"),
    ("CC1(C)OCC(C2CCC3(C)C4=CCC5C(C)(C)C(O)CCC5(C)C4CCC23C)CC(O)C1O (stereo not given)", "18.2 µM (inactive)"),
    ("CCC(O)C1Cc2c(C)cc3c(c2O1)C(=O)c1ccccc1C3=O (stereo not given)", "39.4 µM (inactive)"),
    ("CC(=O)N(C)c1ccc(/N=C/N(C)C)cc1", "> 100 µM (inactive)"),
    ("COc1cc(OC)c(OC)cc1/C=C1\\C=Cc2ccccc21", "11.7 µM (inactive)"),
]

input: I'm curious: which GI50 was measured for O=C1C[C@H](c2ccccc2)O[C@@H](c2ccccc2)C1 tested on HT-29?
output: > 100 µM (inactive)

input: Next record, please: NC1CCN(c2nc3ccccc3c3c2CCCC3)CC1
output: 2.11 µM (inactive)

input: Next record, please: NC1C2C(CC(=O)O)OCC=C3CN4CCC1(C(=O)C(=O)O)C4CC32 (stereo not given)
output: > 100 µM (inactive)

----------
System: SN12C
Assay: NCI tumour cell line growth inhibition, 48 h
The source made the active and inactive calls. Cut-off read from the data, not from the text of the source: active = GI50 up to about 1.1 µM and inactive = higher.
Write down one outcome, taken from YES = active, NO = inactive

Some solved entries appear below for comparison.
# compound, category
records = [
    ("c1ccc(N2N=NC3C4CC(C5c6ccccc6C45)C32)cc1 (configuration not stated)", "NO"),
    ("CC(=O)CC1=C(OC(C)C)C2(OCCO2)C1O (configuration not stated)", "NO"),
    ("O=c1c2ccccc2nc(N/N=C/c2ccc(Cl)cc2)n1-c1ccccc1", "NO"),
    ("O=[N+]([O-])c1cc(I)cc(/C=N/NS(=O)(=O)c2ccc(Cl)cc2)c1O", "NO"),
    ("COC(=O)/C([Se]c1c(C)cc(C)cc1C)=C(\\[Se]c1c(C)cc(C)cc1C)C(=O)OC", "NO"),
    ("COc1ccc2oc(=O)c(-c3nc4ccccc4s3)cc2c1", "NO"),
    ("CCN(CC)CCOc1ccc(N2Cc3ccccc3C2=O)cc1", "NO"),
    ("C1=C\\SS/C=C\\SS/C=C\\SS/C=C\\SS/1", "NO"),
]

input: Check the results log: what was the call for C=C[C@]1(C)C[C@@H](OC(=O)CO)[C@@]2(C)[C@H](C)CC[C@]3(CCC(=O)[C@H]32)[C@@H](C)[C@@H]1O ?
output: NO

input: Next record, please: CC[C@@]1(O)C(=O)OCc2c1cc1n(c2=O)Cc2cc3cc4c(cc3nc2-1)OCO4
output: YES

input: Next record, please: COc1cc2c(c(OC)c1OC)[C@@H]1CCCCC[C@@H]1CCC2=O
output: NO

input: Next record, please: O=c1[nH]n2c(=O)cc[nH]c2c1-c1nnns1
output: NO

input: Next record, please: CCCCN1CSC(=S)N(Cc2ccccc2)C1
output: NO

----------
Test system: M14
Experiment: NCI tumour cell line growth inhibition, 48 h
Activity calls are given as the source filed them. No stated cut-off is given here; in the data, active = GI50 up to about 1.1 µM and inactive = higher.
Write down one outcome, taken from class 1 for active, class 0 for inactive

Some solved entries appear below for comparison.
# compound, category
rows = [
    ("O=[N+]([O-])c1ccc2c(/N=N/c3c(O)ccc4ccccc34)c(O)cc(S(=O)(=O)O)c2c1", "class 0"),
    ("COC(=O)C(=O)C(C(=O)C(=O)Nc1ccccc1C(N)=O)c1nc2ccc(C(=O)c3ccccc3)cc2nc1O (centres undefined)", "class 0"),
    ("CNC(=O)N(C)C(=O)c1ccccc1C(=O)N(C)C(=O)NC", "class 0"),
    ("COP(=O)(C(/C=C/c1ccccc1)OC(C)=O)[C@@H]1CCCC[C@H]1N(CC(C)(C)C)C(C)=O (some centres undefined)", "class 0"),
    ("O=C(CCCn1ccnc1[N+](=O)[O-])NCCn1cnc([N+](=O)[O-])c1", "class 0"),
    ("CCCCC(N)CSSCC(N)CCCC (centres undefined)", "class 0"),
    ("O=C(O)c1ccccc1/C=C1\\Cc2ccc3c(c2C1=O)CCCC3", "class 0"),
    ("CCN(CC)CC1CCCCN1CC(=O)N1c2ccc(Br)cc2C(=O)Nc2cccnc21 (centres undefined)", "class 0"),
    ("CCc1n[nH]c(=O)n1-n1c(C)ccc1C", "class 0"),
    ("O=S(=O)(c1ccccc1)n1cc(C[P+](c2ccccc2)(c2ccccc2)c2ccccc2)c2ccccc21", "class 0"),
]

Could you now look at the following compound, please?
input: Check the results log: what was the call for COc1cc2c(cc1O)CCN[C@@]21CS[C@H]2c3c(OC(C)=O)c(C)c4c(c3C(COC1=O)N1C2C2NC(Cc3cc(C)c(OC)c(O)c32)[C@@H]1C#N)OCO4 (some centres undefined) ?
output: class 1
